biological target: Sialic acid-binding Ig-like lectin 9 (Homo sapiens); experiment: Hs-Siglec9 ALPHAscreen SOP 20170721; set-up: scale not given: direction of the effect not stated beside the values; conditions: 10 µM
property_label: Percent Effect (%)
Give the value, in units of %, as a plain number.

compound | measured_number
Cc1cc(CNC(=O)N2CCN(c3nc(C)c(C)s3)CC2)no1 | 31.4

# Percent Effect of COCCN1C(=O)C[C@H]2[C@H]1CCN2Cc1ccc(OC)cc1 = -2.04

# Percent Effect of Cc1nc(CCCNC(=O)C2CC(=O)N(C3CC3)C2)sc1C (stereo unspecified) = 5.44

---

test system: Trypanosoma cruzi; assay: Trypanosoma cruzi phosphomannomutase and mannose-1-phosphate guanylyltransferase assay; format: functional; design: scale not given: direction of the effect not stated beside the values; conditions: 10 µM
property_label: Percent Effect (%)
Give the value, in units of %, as a plain number.

Worked cases, answers included:
compound | Percent Effect (%)
CCc1cc(N[C@H]2CC[C@H](O)CC2)n2nc(C)c(C)c2n1 | -2.82
Cc1c(C(=O)NCC(C)C)nnn1-c1cccc2c1CCN(C)C2 | -0.682
O=C(NCc1nnc2n1CCCCC2)N1CCc2sccc2C1 | 1.95
c1cnn(-c2ccc(CN3CCOC(Cn4cncn4)C3)cc2)c1 (stereo unspecified) | 2.74
Cc1nc(CN2CCc3cncnc3C2)oc1C | 5.09

API: the following record is the query input.
Form: item CC(C)c1nccn1C1CCCN(C(=O)c2cnc[nH]2)C1 (stereo unspecified) ; test system Trypanosoma cruzi; Percent Effect: 5.32

---

target: Protein translocase subunit SecA (Escherichia coli (strain K12)) (UniProt P10408); experiment: Assay to Identify E. coli SecA ATPase Inhibitors; type: functional; set-up: scale not given: direction of the effect not stated beside the values; conditions: 30 µM
Sequence (P10408 whole entry): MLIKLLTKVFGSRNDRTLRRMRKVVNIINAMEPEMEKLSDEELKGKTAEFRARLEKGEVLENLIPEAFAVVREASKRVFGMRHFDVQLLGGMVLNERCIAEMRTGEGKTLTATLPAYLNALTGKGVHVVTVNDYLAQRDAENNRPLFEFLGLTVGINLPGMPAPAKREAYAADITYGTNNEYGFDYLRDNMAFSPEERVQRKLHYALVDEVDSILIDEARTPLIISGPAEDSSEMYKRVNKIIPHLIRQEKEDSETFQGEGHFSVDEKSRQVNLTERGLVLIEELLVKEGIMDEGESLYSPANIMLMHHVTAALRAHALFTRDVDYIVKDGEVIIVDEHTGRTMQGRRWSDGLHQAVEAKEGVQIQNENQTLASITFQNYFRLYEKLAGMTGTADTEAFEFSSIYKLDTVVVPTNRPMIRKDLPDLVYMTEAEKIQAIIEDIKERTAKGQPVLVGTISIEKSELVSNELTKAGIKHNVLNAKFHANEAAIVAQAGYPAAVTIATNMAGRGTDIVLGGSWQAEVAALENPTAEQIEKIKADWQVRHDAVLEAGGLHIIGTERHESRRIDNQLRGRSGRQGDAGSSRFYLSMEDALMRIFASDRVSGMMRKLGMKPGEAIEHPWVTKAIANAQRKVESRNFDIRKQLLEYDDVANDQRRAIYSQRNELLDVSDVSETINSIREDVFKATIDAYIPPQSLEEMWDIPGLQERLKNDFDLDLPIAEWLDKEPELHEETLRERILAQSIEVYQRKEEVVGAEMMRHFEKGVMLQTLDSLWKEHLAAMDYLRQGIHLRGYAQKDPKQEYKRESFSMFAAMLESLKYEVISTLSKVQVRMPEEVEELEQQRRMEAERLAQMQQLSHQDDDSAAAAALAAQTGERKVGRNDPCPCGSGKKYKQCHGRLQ
Entries with a potency or affinity are not part of this list.
property_label: Percent Effect

molecule | property_label | result
N#Cc1ccc(N2CCN(C(=O)c3cc(C4CC4)[nH]n3)CC2)c(F)c1 | Percent Effect | -6.31%
CN(C)C(=O)c1cccc(NC(=O)N(CCO)Cc2ccsc2)c1 | Percent Effect | -0.273%
Cc1ccc(N2CC3(COCCN(Cc4nccs4)C3)OCC2=O)s1 (centres undefined) | Percent Effect | 4.24%

API: the following record is the query input.
# Percent Effect of CN(C)CCN(Cc1cccc(C(F)(F)F)c1)C(=O)c1cc[nH]n1 = 1.05%

---

biological target: Tyrosyl-tRNA synthetase, putative (Trypanosoma cruzi (strain CL Brener)) (UniProt Q4DSP6); assay: Trypanosoma cruzi tyrosyl tRNA synthetase (TcYRS) _High Tyrosine SOP; assay type: functional; set-up: scale not given: in the data most compounds retested in dose-response had high values; details: 30 µM
Sequence (Q4DSP6 as listed by the source): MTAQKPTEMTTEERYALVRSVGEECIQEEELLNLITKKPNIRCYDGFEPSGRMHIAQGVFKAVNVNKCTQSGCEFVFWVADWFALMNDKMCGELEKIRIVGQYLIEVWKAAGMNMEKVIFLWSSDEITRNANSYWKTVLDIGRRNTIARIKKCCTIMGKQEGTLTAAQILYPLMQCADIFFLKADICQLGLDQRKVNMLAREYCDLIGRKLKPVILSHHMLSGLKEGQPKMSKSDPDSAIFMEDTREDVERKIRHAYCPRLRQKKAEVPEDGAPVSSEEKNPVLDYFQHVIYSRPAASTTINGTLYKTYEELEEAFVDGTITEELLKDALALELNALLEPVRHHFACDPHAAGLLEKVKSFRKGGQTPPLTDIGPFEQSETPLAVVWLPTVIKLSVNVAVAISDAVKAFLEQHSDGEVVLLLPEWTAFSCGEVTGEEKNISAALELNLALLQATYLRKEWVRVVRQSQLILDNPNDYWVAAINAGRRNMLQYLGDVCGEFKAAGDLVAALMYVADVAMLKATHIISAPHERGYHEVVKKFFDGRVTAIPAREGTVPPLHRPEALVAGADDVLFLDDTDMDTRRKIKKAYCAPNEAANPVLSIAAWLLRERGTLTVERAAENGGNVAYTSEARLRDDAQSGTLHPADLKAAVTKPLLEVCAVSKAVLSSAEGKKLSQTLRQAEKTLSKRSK
property_label: Percent Effect (%)
Give the value, in units of %, as a plain number.

Worked cases, answers included:
molecule | units | measured_number
O=C(C1CCCc2[nH]ncc21)N1CCCC1 (configuration not stated) | % | -2.15
Cc1cc(C)cc(C2(C(=O)NC(C)Cn3ccnc3)CC2)c1 (configuration not stated) | % | 8.37
CCC(=O)NCc1cc(Br)c(OC)c(OC)c1 | % | 1.64

API: the following record is the query input.
Form: item CCOCCCNc1nc(O)cc(C2CC(=O)N(C)C2)n1 (configuration not stated) ; test system Tyrosyl-tRNA synthetase, putative (Trypanosoma cruzi (strain CL Brener)) (UniProt Q4DSP6); Percent Effect: 1.07

---

The following compounds are shown together with reported Percent Effect values.
target: Tyrosyl-tRNA synthetase, putative (Trypanosoma cruzi (strain CL Brener)); experiment: Trypanosoma cruzi tyrosyl tRNA synthetase (TcYRS) _High Tyrosine SOP; assay type: functional; set-up: scale not given: in the data most compounds retested in dose-response had high values; conditions: 30 µM
Give the value, in units of %, as a plain number.

Worked cases, answers included:
compound | Percent Effect [%]
CCc1nc(CN2CCCN(c3ncnc4ccccc34)CC2)no1 | 3.23
CCn1cc(NC(=O)NCC(O)CN2CCCCC2)cn1 (stereo unspecified) | 0

# Percent Effect of CNC(=O)[C@@]12CCC3(CCN(S(C)(=O)=O)CC3)[C@@H]1CN(S(C)(=O)=O)C2 = 1.07

# Percent Effect of CCCS(=O)(=O)c1ncc(CN2CCC(CO)CC2)n1CC1CCCO1 (stereo unspecified) = 0

# Percent Effect of Cc1nc(-c2ccccc2)n(CC(=O)N(C(C)C)C(C)C)n1 = 9.36

# Percent Effect of CC(=O)N(Cc1noc(C)n1)C1CCN(Cc2cc(C)on2)C1 (stereo unspecified) = 10.5

---

target: Chromo domain-containing protein 1 (Saccharomyces cerevisiae (strain ATCC 204508 / S288c) (Baker's yeast)) (UniProt P32657); assay: ScCHD-1 Enzyme Inhibition Assay; assay type: functional; parameters: scale not given: in the data most compounds retested in dose-response had high values; conditions: 30 µM
Sequence (P32657 whole entry, the tested form may be a part): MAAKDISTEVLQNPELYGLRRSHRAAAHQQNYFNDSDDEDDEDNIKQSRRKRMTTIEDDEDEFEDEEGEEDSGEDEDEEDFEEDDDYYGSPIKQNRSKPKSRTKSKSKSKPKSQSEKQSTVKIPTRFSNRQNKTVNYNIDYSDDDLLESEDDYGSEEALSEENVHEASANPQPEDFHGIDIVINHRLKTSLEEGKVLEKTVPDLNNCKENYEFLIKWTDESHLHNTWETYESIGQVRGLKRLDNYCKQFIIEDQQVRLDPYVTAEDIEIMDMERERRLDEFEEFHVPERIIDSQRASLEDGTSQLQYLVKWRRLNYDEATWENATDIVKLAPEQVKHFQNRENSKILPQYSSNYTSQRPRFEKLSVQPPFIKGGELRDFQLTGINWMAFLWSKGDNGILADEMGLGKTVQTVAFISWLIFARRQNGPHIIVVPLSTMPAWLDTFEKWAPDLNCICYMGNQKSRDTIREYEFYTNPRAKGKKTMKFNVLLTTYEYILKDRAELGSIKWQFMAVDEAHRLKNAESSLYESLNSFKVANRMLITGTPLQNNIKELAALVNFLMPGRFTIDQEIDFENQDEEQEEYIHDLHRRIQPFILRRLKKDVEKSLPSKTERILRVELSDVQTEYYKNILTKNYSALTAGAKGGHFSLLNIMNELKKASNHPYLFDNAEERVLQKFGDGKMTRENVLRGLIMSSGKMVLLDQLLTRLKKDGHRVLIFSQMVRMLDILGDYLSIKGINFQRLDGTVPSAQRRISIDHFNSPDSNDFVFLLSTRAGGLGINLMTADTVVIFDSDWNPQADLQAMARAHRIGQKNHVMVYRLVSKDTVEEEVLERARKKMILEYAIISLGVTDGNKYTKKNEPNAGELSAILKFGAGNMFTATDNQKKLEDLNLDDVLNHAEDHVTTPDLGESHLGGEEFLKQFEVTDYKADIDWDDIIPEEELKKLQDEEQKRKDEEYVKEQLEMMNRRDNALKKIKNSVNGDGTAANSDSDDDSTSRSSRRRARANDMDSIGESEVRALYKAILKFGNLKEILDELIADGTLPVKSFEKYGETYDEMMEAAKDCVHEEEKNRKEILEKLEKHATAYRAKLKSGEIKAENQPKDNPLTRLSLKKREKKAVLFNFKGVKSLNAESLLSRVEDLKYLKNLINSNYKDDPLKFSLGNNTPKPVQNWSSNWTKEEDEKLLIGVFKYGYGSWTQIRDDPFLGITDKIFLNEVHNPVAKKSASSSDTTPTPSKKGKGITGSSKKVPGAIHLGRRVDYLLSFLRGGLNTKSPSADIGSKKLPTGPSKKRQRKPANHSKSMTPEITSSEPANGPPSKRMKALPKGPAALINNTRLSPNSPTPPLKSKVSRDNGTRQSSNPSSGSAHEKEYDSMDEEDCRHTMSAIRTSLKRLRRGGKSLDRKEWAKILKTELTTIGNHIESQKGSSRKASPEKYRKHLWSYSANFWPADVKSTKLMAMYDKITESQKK
property_label: Percent Effect (%)
Give the value, in units of %, as a plain number.

molecule | units | Percent Effect
CC(=O)N(Cc1noc(C2CC2)n1)C1CCN(Cc2nccn2C)C1 (configuration not stated) | % | -5.65
c1cnc(N2C[C@H]3CCN(c4cccnc4)C[C@H]3C2)nc1 | % | 7.23
COCCN1C(=O)C[C@H]2[C@H]1CCN2Cc1ccc(OC)cc1 | % | -5.69
CN1CCN(Cc2ccccc2CNC(=O)c2ccc(Br)cc2F)CC1 | % | -4.37

# Percent Effect of CN(Cc1cnn(C)c1)C(=O)NCc1nnc2n1CCC2 = -6.73

# Percent Effect of O=C(Nc1cc(F)ccc1OCC1CCCO1)c1ccc(O)nc1 (configuration not stated) = -22.2

# Percent Effect of CN1CCCC(CNC(=O)N2CCN(Cc3ccon3)CC2)C1 (configuration not stated) = -5.38

---

Target: Ubiquitin-activating enzyme e1, putative (Leishmania donovani (strain BPK282A1)) (UniProt E9BSI1)
Sequence (whole entry): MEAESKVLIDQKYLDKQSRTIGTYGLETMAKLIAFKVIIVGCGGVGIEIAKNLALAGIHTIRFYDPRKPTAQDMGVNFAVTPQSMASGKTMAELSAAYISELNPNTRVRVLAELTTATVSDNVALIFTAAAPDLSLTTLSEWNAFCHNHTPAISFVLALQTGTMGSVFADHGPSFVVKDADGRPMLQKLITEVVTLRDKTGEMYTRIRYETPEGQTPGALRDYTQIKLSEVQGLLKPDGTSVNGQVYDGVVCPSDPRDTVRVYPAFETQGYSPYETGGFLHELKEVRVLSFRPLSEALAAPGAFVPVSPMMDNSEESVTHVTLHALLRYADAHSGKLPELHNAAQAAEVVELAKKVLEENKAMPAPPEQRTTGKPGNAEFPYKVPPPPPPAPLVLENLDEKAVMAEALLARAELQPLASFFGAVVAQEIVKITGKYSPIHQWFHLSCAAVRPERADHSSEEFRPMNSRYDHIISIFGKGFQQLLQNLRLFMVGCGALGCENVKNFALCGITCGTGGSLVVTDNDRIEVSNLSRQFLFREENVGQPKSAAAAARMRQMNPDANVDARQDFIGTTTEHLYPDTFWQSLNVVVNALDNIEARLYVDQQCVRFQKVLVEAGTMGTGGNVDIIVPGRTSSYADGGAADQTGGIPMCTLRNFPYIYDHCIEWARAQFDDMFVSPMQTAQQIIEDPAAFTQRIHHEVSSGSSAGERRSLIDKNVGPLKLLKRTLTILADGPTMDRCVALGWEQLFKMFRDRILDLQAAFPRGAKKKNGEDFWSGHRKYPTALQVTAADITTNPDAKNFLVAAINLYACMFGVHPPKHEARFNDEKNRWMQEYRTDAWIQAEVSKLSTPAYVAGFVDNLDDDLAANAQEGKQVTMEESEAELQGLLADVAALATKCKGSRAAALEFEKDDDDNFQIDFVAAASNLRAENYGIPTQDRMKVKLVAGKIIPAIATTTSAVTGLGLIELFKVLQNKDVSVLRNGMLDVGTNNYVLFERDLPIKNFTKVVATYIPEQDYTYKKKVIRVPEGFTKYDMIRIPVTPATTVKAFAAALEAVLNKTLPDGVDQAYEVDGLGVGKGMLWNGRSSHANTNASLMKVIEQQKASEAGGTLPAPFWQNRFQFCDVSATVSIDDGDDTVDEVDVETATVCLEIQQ
Experiment: Leishmania donovani Ubiquitin Activating Enzyme (LdE1)
Type: functional
Set-up: scale not given: direction of the effect not stated beside the values
Settings: 30 µM
Measured potencies and affinities stand elsewhere.
Quick rule for you: Percent Effect under 20% gets true (1), anything else gets false (0).

Known results for molecules:
molecule | answer_label
COc1cc2nc3n(c(=O)c2cc1OC)CCN(C)CC3 | true (1)
CC(C(=O)NCc1ccc(N2CCNC(=O)C2)cc1)n1cncn1 (configuration not stated) | false (0)
Cc1noc(CN2CCN(CC(C)O)CC2)n1 (configuration not stated) | true (1)
CCN(CC1CN(Cc2ncc(C)o2)CCO1)c1cccnn1 (configuration not stated) | true (1)
CN(C)C(=O)CC1CC2(CCNCC2)c2cc(F)ccc21 (configuration not stated) | true (1)
CC1CN(C)c2ccccc2CN1C(=O)c1ccncc1 (configuration not stated) | true (1)

Asked: Please let me know if c1cc2n(n1)CC(CNCc1ccc(OCC3CC3)nc1)CN2 (configuration not stated) shows Percent Effect below 20%.
Given back: false (0)
